Measured target: NCK2 1|3|2 full-length recombinant protein (SH3-shuffled, tag-free) (mouse, UniProt O55033 1-113; O55033 198-256; O55033 171-197; O55033 114-170; O55033 257-380)
Sequence (O55033 other isoform, or with tags, fused parts or gaps): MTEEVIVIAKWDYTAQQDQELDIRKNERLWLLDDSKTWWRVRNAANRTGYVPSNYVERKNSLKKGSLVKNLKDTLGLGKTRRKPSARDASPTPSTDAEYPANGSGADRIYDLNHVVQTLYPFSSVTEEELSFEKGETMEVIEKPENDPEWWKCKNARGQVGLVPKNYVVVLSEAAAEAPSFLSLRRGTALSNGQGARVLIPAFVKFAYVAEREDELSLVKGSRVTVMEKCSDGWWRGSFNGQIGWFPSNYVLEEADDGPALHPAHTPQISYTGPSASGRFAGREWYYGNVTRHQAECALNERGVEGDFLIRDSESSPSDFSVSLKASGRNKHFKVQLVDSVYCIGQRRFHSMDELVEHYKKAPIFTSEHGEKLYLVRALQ
Assay method text: FP
pKd: −log10 of the molar value. No end group written: not given here.
Parameter measured: pKd

- Binder: "RGQNKERPPPVPNPDY (also: fluorescein isothiocyanate-conjugated (position not given here)) [Cd3ε peptide (RGQNKERPPPVPNPDY), fluorescein isothiocyanate-conjugated]"
  Obs value: 4.87
- Binder: "DIQDKPPAPPMRNTST (also: fluorescein isothiocyanate-conjugated (position not given here)) [PAK1 peptide (DIQDKPPAPPMRNTST), fluorescein isothiocyanate-conjugated]"
  Obs value: 4.11
